Assign Ratio to each entry below.
ASSAY TEXT: Ki ratio of human versus bovine phenylethanolamine N-methyl-transferase
Numbers only.

Check out these entries, answers already filled in.
- COMPOUND: "CC(N)c1cccc(Cl)c1Cl (stereo not drawn)"
  Ratio: 1.4
- COMPOUND: "C[C@H](N)c1ccccc1"
  Ratio: 3.1
- COMPOUND: "NCc1ccc2c(c1)Cc1ccccc1-2"
  Ratio: 4.4

# per-item lookup of Ratio; items listed below
1. CC(N)c1ccccc1 (racemic)
2. c1ccc2c(c1)CCNC2 [1,2,3,4-TETRAHYDROISOQUINOLINE]
3. C[C@@H](N)c1ccccc1
4. NC1CC2CC1c1ccccc12 (stereo not drawn)
5. NC12CCC(C3CCCCC3)(CC1)CC2

output:
[3, 1.5, 3, 1.6, 3.5]
